# systemTested: human PDE2A1 (Homo sapiens (Human))
# Sequence (O00408 other isoform, or with tags, fused parts or gaps): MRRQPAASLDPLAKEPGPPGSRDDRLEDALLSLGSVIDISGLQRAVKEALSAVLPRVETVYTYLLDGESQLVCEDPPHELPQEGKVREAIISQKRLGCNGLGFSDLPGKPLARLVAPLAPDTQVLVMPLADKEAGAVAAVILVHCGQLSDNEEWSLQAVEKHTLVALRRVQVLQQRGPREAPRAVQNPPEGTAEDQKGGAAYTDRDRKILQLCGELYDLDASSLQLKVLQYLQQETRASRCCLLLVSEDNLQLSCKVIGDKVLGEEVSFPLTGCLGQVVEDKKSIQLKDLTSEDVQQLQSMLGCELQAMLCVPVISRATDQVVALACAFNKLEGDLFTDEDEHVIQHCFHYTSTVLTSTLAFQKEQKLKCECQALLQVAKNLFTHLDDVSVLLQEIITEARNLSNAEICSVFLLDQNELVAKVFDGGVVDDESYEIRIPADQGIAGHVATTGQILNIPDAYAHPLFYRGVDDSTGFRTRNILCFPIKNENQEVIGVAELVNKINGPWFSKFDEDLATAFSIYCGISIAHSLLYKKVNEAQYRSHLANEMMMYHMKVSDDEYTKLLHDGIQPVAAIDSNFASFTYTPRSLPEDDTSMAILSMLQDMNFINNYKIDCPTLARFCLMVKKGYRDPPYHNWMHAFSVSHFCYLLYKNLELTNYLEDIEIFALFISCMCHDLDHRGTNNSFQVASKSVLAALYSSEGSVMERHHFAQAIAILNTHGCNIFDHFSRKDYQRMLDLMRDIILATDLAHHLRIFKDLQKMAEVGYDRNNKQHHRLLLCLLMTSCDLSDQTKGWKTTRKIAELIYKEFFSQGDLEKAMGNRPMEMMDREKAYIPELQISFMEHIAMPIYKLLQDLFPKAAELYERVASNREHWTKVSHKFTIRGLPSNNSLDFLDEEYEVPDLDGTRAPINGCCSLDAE
# procedureSummary: IMAP FP PDE selectivity panel, human PDE2A1
# Type: biochemical
# runParameters: Human PDE2, Lab B; read-out: Human PDE2 Ki (nM) - Lab B
readoutKind: Ki (nM)

{"compound": "COc1ccc(Cc2nc(C(=O)N[C@@H](c3ccc(SC(F)(F)F)c(F)c3)C(C)C)cc(=O)[nH]2)cc1 [Example 470]", "endpointValue": 1.3}
{"compound": "CC[C@@H](NC(=O)c1cc(=O)[nH]c(Cc2ccc(OC)cc2)n1)c1ccc(C(F)(F)F)c(F)c1 [Example 483]", "endpointValue": 2.9}
{"compound": "CC(C)[C@@H](NC(=O)c1cc(=O)[nH]c(-c2ccccc2)n1)c1ccc(OC(F)(F)F)c(F)c1 [Example 127]", "endpointValue": 3.9}
{"compound": "COc1ccc(Cc2nc(C(=O)N[C@@H](c3ccc(OC(F)(F)F)c(F)c3)C(C)C)cc(=O)[nH]2)cc1F [Example 515]", "endpointValue": 1}
{"compound": "CC(C)(C)[C@@H](NC(=O)c1cc(=O)[nH]c(C2CC2)n1)c1ccc(OC(F)(F)F)cc1 [Example 463]", "endpointValue": 0.84}

(a) C[C@@H](NC(=O)c1cc(=O)[nH]c(-c2ccccc2)n1)c1ccc(C(F)(F)F)c(F)c1F [Example 408]
(b) Cc1nc(C(=O)N[C@@H](c2ccc(S(F)(F)(F)(F)F)cc2)C(C)(C)C)cc(=O)[nH]1 [Example 618]
Query :: Look at a and b . Which one has the lower recorded Ki number? Mark your answer with the label of the selected entry.
Result :: b
(b: 2 nM, a: 11 nM)
